details: 313.15 K; 101 kPa; Liquid
Numbers after ± are expanded uncertainties.
mass density: recorded values
Give the figure together with its unit, number first.

compound	mass density
OCCO	1099.8 ± 0.69 kg/m3

**Q:** Look up mass density: CC(O)CO (centres undefined)
**A:** 1021.44 ± 0.62 kg/m3

**Q:** Okay, and "OCCCCO" ?
**A:** 1003.55 ± 0.57 kg/m3

**Q:** Okay, and "OCCCO" ?
**A:** 1040.61 ± 0.67 kg/m3

====

mass density: recorded values
settings: 323.15 K; 101 kPa; Liquid
± gives the expanded uncertainty stated by the source.
Give the figure together with its unit, number first.

Study these solved cases before continuing.
molecule	mass density
OCCCCO	997.8 ± 0.61 kg/m3
OCCCO	1034.51 ± 0.71 kg/m3
OCCO	1092.59 ± 0.73 kg/m3

**Q:** Look up mass density: CC(O)CO (centres undefined)
**A:** 1013.74 ± 0.66 kg/m3
